Just for reference, ChEMBL document CHEMBL1130375 is where these values come from.

Listed compounds paired with reported pIC50
Target Desc: Endothelin-1 receptor (Rattus norvegicus, UniProt P26684)
Sequence (P26684 whole entry): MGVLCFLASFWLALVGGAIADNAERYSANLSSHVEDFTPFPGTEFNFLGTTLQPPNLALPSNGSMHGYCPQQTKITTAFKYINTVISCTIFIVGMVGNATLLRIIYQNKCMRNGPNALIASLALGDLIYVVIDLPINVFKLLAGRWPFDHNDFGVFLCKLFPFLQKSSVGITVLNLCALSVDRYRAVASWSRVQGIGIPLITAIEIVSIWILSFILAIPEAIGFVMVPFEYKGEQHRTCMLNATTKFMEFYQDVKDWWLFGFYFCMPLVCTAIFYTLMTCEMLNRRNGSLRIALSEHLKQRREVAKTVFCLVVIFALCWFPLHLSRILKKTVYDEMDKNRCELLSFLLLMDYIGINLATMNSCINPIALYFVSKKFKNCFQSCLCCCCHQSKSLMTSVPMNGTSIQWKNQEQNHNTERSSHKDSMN
Test Name: Inhibition of specific binding of [125I]ET1 (endothelin 1) to the endothelin A receptor of rat aorta membranes
Reminder that pIC50 means the negative base-10 logarithm of the concentration expressed in mol/L.

Tell us which pIC50 value is on record for COc1ccc(S(=O)(=O)NC(=O)C(c2ccc3c(c2)OCO3)n2nc(C)ccc2=O)cc1 (configuration not stated)
6.80

Give pIC50 for Cc1ccc(=O)n(C(C(=O)NS(=O)(=O)c2ccc(C(C)C)cc2)c2ccc3c(c2)OCO3)n1 (configuration not stated)
7.47

Please report pIC50 for the following compound: Cc1cc(C)c(=O)n(C(C(=O)NS(=O)(=O)c2ccc(C(C)(C)C)cc2)c2ccc3c(c2)OCO3)n1 (stereo in doubt; 2q)
7.70

Return pIC50 (reported value) for this compound: Cc1ccc(=O)n(C(C(=O)NS(=O)(=O)c2ccc(Br)cc2)c2ccc3c(c2)OCO3)n1 (configuration not stated)
6.64

Note down pIC50 recorded for CC(C)c1ccc(S(=O)(=O)NC(=O)C(c2ccc3c(c2)OCO3)n2nc3c(cc2=O)CCC3)cc1 (configuration not stated)
5.60

Query pIC50 for Cc1ccc(=O)n(C(C(=O)NS(=O)(=O)c2ccccc2)c2ccc3c(c2)OCO3)n1 (configuration not stated)
6.64

Look up and state reported pIC50 for Cc1cc(=O)n(C(C(=O)NS(=O)(=O)c2ccc(C(C)C)cc2)c2ccc3c(c2)OCO3)nc1C (configuration not stated)
6.47

Answer with the recorded pIC50 for the compound listed here: CCCc1ccc(=O)n(C(C(=O)NS(=O)(=O)c2ccc(C(C)C)cc2)c2ccc3c(c2)OCO3)n1 (configuration not stated)
6.19

Specify pIC50 for CC(C)c1ccc(S(=O)(=O)NC(=O)C(c2ccc3c(c2)OCO3)n2nc(C(C)(C)C)ccc2=O)cc1 (configuration not stated) and stop.
5.40

Using the record for CCCc1cc(C)c(=O)n(C(C(=O)NS(=O)(=O)c2ccc(C(C)C)cc2)c2ccc3c(c2)OCO3)n1 (configuration not stated) , state its measured pIC50.
6.54

###

Target Desc: Endothelin-1 receptor (Rattus norvegicus)
Sequence (P26684 whole entry): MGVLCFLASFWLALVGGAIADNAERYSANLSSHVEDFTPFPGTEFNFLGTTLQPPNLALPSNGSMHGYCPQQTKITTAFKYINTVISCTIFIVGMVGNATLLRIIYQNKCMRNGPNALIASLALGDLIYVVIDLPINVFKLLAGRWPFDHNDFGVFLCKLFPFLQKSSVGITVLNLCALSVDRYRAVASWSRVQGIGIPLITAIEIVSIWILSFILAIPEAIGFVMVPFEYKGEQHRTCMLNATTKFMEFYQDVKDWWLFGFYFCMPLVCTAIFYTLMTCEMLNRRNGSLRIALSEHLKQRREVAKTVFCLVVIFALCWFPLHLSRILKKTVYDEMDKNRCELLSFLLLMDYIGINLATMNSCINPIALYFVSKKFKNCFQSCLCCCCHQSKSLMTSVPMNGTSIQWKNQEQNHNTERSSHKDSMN
Test Name: Inhibition of specific binding of [125I]ET1 (endothelin 1) to the endothelin A receptor of rat aorta membranes
Property Name: pIC50
Note on units: pIC50 is unitless, being -log10 of a concentration expressed in mol/L.

Return the recorded pIC50 value; entry: CC(C)c1ccc(S(=O)(=O)NC(=O)C(c2ccc3c(c2)OCO3)N2N=C(c3ccccc3)CCC2=O)cc1 (stereo unspecified)
5.59

Read the entry COc1ccc(-c2cc(C)c(=O)n(C(C(=O)NS(=O)(=O)c3ccc(C(C)C)cc3)c3ccc4c(c3)OCO4)n2)cc1 (stereo unspecified) and write its reported pIC50.
5.40

Quote pIC50 reported for Cc1cc(C)c(=O)n(C(C(=O)NS(=O)(=O)c2ccc(C(C)(C)C)cc2)c2ccc3c(c2)OCO3)n1 (single isomer, unassigned; form 1) please.
5.59

Determine from records and report pIC50 for Cc1ccc(=O)n(C(C(=O)NS(=O)(=O)c2ccc(-c3ccccc3)cc2)c2ccc3c(c2)OCO3)n1 (stereo unspecified)
6.62

Annotate the compound COc1ccc(C2=NN(C(C(=O)NS(=O)(=O)c3ccc(C(C)C)cc3)c3ccc4c(c3)OCO4)C(=O)CC2)cc1OC (stereo unspecified) with its measured pIC50.
5.39

---
Consider the compound CC(C)c1ccc(S(=O)(=O)NC(=O)C(c2ccc3c(c2)OCO3)n2nc(C3CC3)ccc2=O)cc1 (stereo unspecified) . State its measured pIC50.
6.59

Note down pIC50 recorded for COc1ccc(-c2ccc(=O)n(C(C(=O)NS(=O)(=O)c3ccc(C(C)C)cc3)c3ccc4c(c3)OCO4)n2)cc1 (stereo unspecified)
5.49

Given the compound COc1ccc(C2=NN(C(C(=O)NS(=O)(=O)c3ccc(C(C)C)cc3)c3ccc4c(c3)OCO4)C(=O)CC2)cc1 (stereo unspecified) , write its reported pIC50.
5.54

Read off the recorded pIC50 for Cc1cc(C)c(=O)n(C(C(=O)NS(=O)(=O)c2ccc(C(C)C)cc2)c2ccc3c(c2)OCO3)n1 (stereo unspecified)
7.54

Please report pIC50 for the following compound: CC(C)c1ccc(S(=O)(=O)NC(=O)C(c2ccc3c(c2)OCO3)N2N=C(c3cccs3)CCC2=O)cc1 (stereo unspecified)
5.49

Please indicate pIC50 recorded for CC(C)c1ccc(S(=O)(=O)NC(=O)C(c2ccc3c(c2)OCO3)N2N=C(c3ccc(Cl)cc3)CCC2=O)cc1 (stereo unspecified)
5.57

Return the recorded pIC50 value; entry: Cc1ccc(=O)n(C(C(=O)NS(=O)(=O)c2ccc(C(C)(C)C)cc2)c2ccc3c(c2)OCO3)n1 (stereo unspecified)
7.49
